target: human GPCR sphingosine 1-phosphate receptor 1 (Homo sapiens); construct: host or cells: CHO; test: S1PR1 selectivity Ca2+ flux assay (antagonist readout); type: cell-based; settings: antagonist readout, CHO cells overexpressing human S1PR1 and Gq, S1P at EC80 (6 nM); read-out: S1P1 EC50 (nM), S1P1 antagonist EC50
Sequence (P21453 whole entry): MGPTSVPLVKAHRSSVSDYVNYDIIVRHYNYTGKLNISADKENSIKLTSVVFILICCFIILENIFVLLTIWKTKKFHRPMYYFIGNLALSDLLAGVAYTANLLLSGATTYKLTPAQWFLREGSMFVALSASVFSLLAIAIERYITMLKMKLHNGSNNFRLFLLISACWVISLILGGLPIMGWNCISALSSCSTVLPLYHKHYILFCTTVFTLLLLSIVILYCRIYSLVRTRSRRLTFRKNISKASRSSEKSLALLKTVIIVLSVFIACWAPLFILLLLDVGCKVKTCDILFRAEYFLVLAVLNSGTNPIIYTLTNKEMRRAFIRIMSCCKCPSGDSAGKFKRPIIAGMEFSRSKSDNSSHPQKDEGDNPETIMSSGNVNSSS
Give EC50 for every item shown.

Molecule: O=C(O)Cn1nc(Cc2nc3cc(Cl)c(OC(F)(F)F)cc3[nH]2)c2c(c1=O)CCCC2
Outcome measure: EC50
Test result: ≥ 19900 nM

Molecule: N#Cc1cc2nn(Cc3nn(CC(=O)NC4CCCC4)c(=O)c4ccccc34)cc2cc1OCC(F)F
Outcome measure: EC50
Test result: ≥ 19800 nM

Molecule: O=C(O)c1cn(Cc2nc3cc(OCC4CC4)c(C(F)(F)F)cc3[nH]2)c2ccccc2c1=O
Outcome measure: EC50
Test result: 830 nM

Molecule: NC(=O)c1ccc2c(=O)n(CC(=O)N3CCOCC3)nc(Cc3nc4cc(OCC(F)F)c(Cl)cc4[nH]3)c2c1
Outcome measure: EC50
Test result: ≥ 19800 nM

Molecule: O=C(O)Cn1cc(Cc2nc3cc(Cl)c(OCC(F)F)cc3[nH]2)c2ccccc2c1=O
Outcome measure: EC50
Test result: ≥ 19800 nM

Dear colleague, could you please provide EC50 for the molecules listed below?
1. O=C(Cn1nc(Cn2cc3cc(OCC4CC4)c(Cl)cc3n2)c2ccccc2c1=O)N1CCOCC1
2. CN(C)C1CCN(C(=O)Cn2nc(Cc3nc4cc(OCC(F)F)c(C#N)cc4[nH]3)c3ccccc3c2=O)C1 (stereo not drawn)

(A)
≥ 19900 nM
≥ 19800 nM

###

target: human GPCR sphingosine 1-phosphate receptor 2 (Homo sapiens, UniProt O95136); construct: host or cells: CHO; assay: S1PR2 antagonist Ca2+ flux assay; assay type: cell-based; details: antagonist mode, CHO-S1PR2 cells, S1P at EC80, Ca2+ fluorescence; read-out: S1P2 EC50 (nM), S1P2 antagonist EC50
Sequence (O95136 whole entry): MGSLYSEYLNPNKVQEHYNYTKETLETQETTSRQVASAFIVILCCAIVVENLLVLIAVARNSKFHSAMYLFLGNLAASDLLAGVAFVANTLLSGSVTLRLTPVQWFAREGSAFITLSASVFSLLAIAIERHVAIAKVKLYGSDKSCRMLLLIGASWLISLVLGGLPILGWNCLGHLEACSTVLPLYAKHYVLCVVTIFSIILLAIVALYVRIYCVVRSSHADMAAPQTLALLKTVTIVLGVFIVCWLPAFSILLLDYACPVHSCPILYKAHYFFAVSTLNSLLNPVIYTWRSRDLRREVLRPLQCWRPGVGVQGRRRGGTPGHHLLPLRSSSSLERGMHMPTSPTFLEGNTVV
Flag rule - EC50 less than 30 nM flags T; the remaining entries get F.

(Q) Could you please tell me whether EC50 recorded for `CCOc1ccc2cn(Cc3nn(CC(=O)O)c(=O)c4ccccc34)nc2c1Cl` is less than 30 nM?
(A) F

(Q) Could you please tell me whether EC50 recorded for `CN(CCS(C)(=O)=O)C(=O)Cn1nc(Cc2nc3cc(OCC(F)F)c(C#N)cc3[nH]2)c2ccccc2c1=O` is less than 30 nM?
(A) F

(Q) Could you please tell me whether EC50 recorded for `N#Cc1cc2[nH]c(Cn3nc(CC(=O)O)c(=O)c4ccccc43)nc2cc1OCC1CC1` is less than 30 nM?
(A) T

(Q) Could you please tell me whether EC50 recorded for `N#Cc1cc2[nH]c(Cc3nn(CC(=O)NCCS(N)(=O)=O)c(=O)c4ccccc34)nc2cc1OCC(F)F` is less than 30 nM?
(A) F

###

target: S1PR2 (Homo sapiens, UniProt O95136); construct: expressed in transfected cells; assay: S1PR2 binding assay (competition with radioactively labeled S1P, SpA); conditions: membranes from stable cell line over expressing S1PR2, SpA beads; read-out: S1P2 EC50 (nM), S1PR2 binding EC50
Outcome measure: EC50
The number alone won't do; follow it with the unit.

Here's what some known entries look like.
Molecule: CS(=O)(=O)NC(=O)Cn1nc(Cn2cc3cc(OCC4CC4)c(Cl)cc3n2)c2ccccc2c1=O [Compound 243]
EC50: 400 nM
//
Molecule: O=C(O)C1(n2nc(Cn3cc4cc(OCC5CC5)c(Cl)cc4n3)c3ccccc3c2=O)CC1 [Compound 95]
EC50: 208 nM
//
Molecule: C[C@@H]1CN(C(=O)Cn2nc(Cc3nc4cc(Cl)c(OCC5(C#N)CC5)cc4[nH]3)c3ccccc3c2=O)C[C@H](C)O1 [Compound 162]
EC50: 75.1 nM

For the next question, use this molecule.
(Q) State the recorded EC50 for this entry: N#Cc1cc2[nH]c(Cc3nn(CC(=O)NCC4CC(F)(F)C4)c(=O)c4ccccc34)nc2cc1OCC(F)F [Compound 232]
(A) 122 nM
